Recorded measurements of pIC50, one per entry
measured_on: ALK2 (Homo sapiens)
Sequence (Q04771 21-509): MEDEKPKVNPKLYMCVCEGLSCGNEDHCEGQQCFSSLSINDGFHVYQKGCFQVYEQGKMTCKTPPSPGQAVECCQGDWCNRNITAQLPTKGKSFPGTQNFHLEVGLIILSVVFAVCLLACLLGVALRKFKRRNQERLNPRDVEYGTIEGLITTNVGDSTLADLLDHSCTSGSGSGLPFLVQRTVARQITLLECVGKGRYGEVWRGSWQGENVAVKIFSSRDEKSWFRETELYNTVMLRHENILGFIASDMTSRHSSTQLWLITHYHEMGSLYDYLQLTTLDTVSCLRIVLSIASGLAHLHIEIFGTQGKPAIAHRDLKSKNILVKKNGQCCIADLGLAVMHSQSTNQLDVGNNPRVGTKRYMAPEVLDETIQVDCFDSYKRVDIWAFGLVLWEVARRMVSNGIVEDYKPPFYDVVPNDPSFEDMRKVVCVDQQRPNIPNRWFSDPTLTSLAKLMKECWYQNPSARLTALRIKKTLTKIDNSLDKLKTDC
protocol_description: TR-FRET enzymatic ALK kinase assay, ALK2
// returns pIC50 (minus log10 of molar concentration), number only

Examples from the recorded data:
CS(=O)(=O)c1cccc(-c2cnn3cc(-c4ccc(CN5CCCC5)cc4)cnc23)c1 :: 8.52
C[C@H](O)c1cccc(-c2cnn3cc(-c4ccc(OCCN5CCCCC5)cc4)cnc23)c1 :: 7.37
CN1CCC(c2ccc(-c3cnc4c(-c5cccc(C(C)(C)O)c5)cnn4c3)cc2)CC1 :: 7.59
NS(=O)(=O)c1cccc(-c2cnn3cc(-c4ccc(C5CCNCC5)cc4)cnc23)c1 :: 7.10
C[C@@H]1CNC[C@H](C)N1c1ccc(-c2cnc3c(-c4cccc(CO)c4)cnn3c2)cc1 :: 7.40
Cc1ccc([S+](=O)([O-])C(F)(F)F)cc1-c1cnn2cc(-c3ccc(N4[C@H](C)CNC[C@@H]4C)cc3)cnc12 :: 5.18
CC(O)c1cccc(-c2cnn3cc(-c4ccc(C5CCNCC5)cc4)cnc23)c1 (centres unmarked) :: 7.14

Shift focus to the following entry.
Item `C[C@@H]1CNC[C@H](C)N1c1ccc(-c2cnc3c(-c4ccc(F)c(C#N)c4)cnn3c2)cc1` has what recorded pIC50?
6.92
